Catalogue of thermal stability score values
Test system: HeLa Kyoto;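 also: synchronized HeLa Kyoto cells, proteins quantified by TMT10plex mass spectrometry, three biological replicates, mitosis taken 0.5 h after nocodazole release, G1/S directly after double thymidine block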
Assay: thermal stability score vs G1/S (z-score of summed log2 fold changes over temperatures); higher = more thermally stable than in G1/S
Settings: cell cycle stage: early G1 (4.5 h after nocodazole release)

RESIDUE STRING: MGNCCWTQCFGLLRKEAGRLQRVGGGGGSKYFRTCSRGEHLTIEFENLVESDEGESPGSSHRPLTEEEIVDLRERHYDSIAEKQKDLDKKIQKELALQEEKLRLEEEALYAAQREAARAAKQRKLLEQERQRIVQQYHPSNNGEYQSSGPEDDFESCLRNMKSQYEVFRSSRLSSDATVLTPNTESSCDLMTKTKSTSGNDDSTSLDLEWEDEEGMNRMLPMRERSKTEEDILRAALKYSNKKTGSNPTSASDDSNGLEWENDFVSAEMDDNGNSEYSGFVNPVLELSDSGIRHSDTDQQTR [AP1AR]
thermal stability score: -0.31
//
RESIDUE STRING: MFFWCACCLMVAWRVSASDAEHCPELPPVDNSIFVAKEVEGQILGTYVCIKGYHLVGKKTLFCNASKEWDNTTTECRLGHCPDPVLVNGEFSSSGPVNVSDKITFMCNDHYILKGSNRSQCLEDHTWAPPFPICKSRDCDPPGNPVHGYFEGNNFTLGSTISYYCEDRYYLVGVQEQQCVDGEWSSALPVCKLIQEAPKPECEKALLAFQESKNLCEAMENFMQQLKESGMTMEELKYSLELKKAELKAKLL [C4BPB]
thermal stability score: 5.14
